# Ki values compiled below
- assayedTarget: UniProt:P08173
- Sequence (P08173 whole entry): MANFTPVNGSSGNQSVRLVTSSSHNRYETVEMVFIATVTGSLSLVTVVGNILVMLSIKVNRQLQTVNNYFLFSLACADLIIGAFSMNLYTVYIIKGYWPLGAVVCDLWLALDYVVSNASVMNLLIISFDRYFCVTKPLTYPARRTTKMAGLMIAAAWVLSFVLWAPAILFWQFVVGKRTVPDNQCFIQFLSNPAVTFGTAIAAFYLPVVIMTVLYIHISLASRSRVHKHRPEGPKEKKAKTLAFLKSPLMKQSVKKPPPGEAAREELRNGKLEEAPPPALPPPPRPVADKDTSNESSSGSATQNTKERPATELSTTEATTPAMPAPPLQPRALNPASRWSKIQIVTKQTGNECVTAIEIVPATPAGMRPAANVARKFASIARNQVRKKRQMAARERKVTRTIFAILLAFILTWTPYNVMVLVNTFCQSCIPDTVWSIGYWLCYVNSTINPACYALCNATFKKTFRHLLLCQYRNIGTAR
- assayDetails: [3H]NMS competition binding, M4 CHO membranes
- Set-up: host or cells: CHO cells, stably transfected
- setupConditions: competition with 1 nM [3H]NMS; read-out: Inhibition constants (Ki) as negative logarithms, M4 (converted)
measure: Ki (µM)

* C[N+]1(Cc2ccc(Br)s2)CC=CCC1.[I-] (stereo not drawn) | 1.45
* Cc1ccc(CN2CC=CCC2)s1.Cl | 28.8
* Cc1ccc(C[N+]2(C)CC=CCC2)s1.[I-] (stereo not drawn) | 4.37
* Cc1csc(CN2CC=CCC2)c1.Cl | 31.6
* C[N+]1(Cc2cccs2)CC=CCC1.[I-] (stereo not drawn) | 7.94
* Brc1ccc(CN2CC=CCC2)s1.Cl | 12.6

---

- assayedTarget: M1 muscarinic receptor (Homo sapiens, UniProt P11229)
- Sequence (P11229 whole entry): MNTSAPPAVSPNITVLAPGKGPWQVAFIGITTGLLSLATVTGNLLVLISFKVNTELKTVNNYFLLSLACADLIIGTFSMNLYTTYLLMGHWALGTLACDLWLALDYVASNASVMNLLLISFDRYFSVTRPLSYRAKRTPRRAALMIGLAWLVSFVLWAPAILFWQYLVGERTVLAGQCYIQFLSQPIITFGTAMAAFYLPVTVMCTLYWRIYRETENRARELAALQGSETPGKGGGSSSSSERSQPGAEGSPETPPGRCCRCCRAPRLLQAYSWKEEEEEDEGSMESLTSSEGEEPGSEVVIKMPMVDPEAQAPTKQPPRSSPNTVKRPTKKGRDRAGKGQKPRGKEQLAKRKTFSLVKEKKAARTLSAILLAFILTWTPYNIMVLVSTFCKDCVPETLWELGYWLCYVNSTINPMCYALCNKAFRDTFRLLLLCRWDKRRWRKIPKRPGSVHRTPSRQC
- assayDetails: accumulation of inositol phosphates IPX, M1 CHO cells (M1Gq)
- Format: cell-based
- Design: host or cells: CHO cells, stably transfected
- setupConditions: M1 (↑IPX), preferential response, Table 7; read-out: pEC50 (converted)
Threshold 3 µM: EC50 strictly smaller gives 1 (yes), otherwise 0 (no).

* C1=CCN(Cc2cccs2)CC1.Cl [Compound 6A] | 0 (no)
* C[N+]1(Cc2ccc(Br)s2)CC=CCC1.[I-] (stereo not shown) [Compound 7C] | 1 (yes)
* C[N+]1(Cc2ccc(Cl)s2)CC=CCC1.[I-] (stereo not shown) [Compound 7D] | 0 (no)
* C[N+]1(Cc2cccs2)CC=CCC1.[I-] (stereo not shown) [Compound 7A] | 1 (yes)
* Cc1ccc(CN2CC=CCC2)s1.Cl [Compound 6B] | 0 (no)
* Brc1ccc(CN2CC=CCC2)s1.Cl [Compound 6C] | 0 (no)
* Cc1ccc(C[N+]2(C)CC=CCC2)s1.[I-] (stereo not shown) [Compound 7B] | 0 (no)

---

- assayedTarget: UniProtKB P08172
- assayDetails: [3H]NMS competition binding, M2 CHO membranes
- Parameters: host or cells: CHO cells, stably transfected
- setupConditions: Inhibition constants (KI) as negative logarithms, M2, high site, reference agonists, high affinity site
pKi: −log10 of the molar value.
measure: pKi

* O=C1CCCN1CC#CCN1CCCC1 [oxotremorine, reference compound] | 7.90

---

- assayedTarget: M2 muscarinic receptor (Homo sapiens, UniProt P08172)
- Sequence (P08172 whole entry): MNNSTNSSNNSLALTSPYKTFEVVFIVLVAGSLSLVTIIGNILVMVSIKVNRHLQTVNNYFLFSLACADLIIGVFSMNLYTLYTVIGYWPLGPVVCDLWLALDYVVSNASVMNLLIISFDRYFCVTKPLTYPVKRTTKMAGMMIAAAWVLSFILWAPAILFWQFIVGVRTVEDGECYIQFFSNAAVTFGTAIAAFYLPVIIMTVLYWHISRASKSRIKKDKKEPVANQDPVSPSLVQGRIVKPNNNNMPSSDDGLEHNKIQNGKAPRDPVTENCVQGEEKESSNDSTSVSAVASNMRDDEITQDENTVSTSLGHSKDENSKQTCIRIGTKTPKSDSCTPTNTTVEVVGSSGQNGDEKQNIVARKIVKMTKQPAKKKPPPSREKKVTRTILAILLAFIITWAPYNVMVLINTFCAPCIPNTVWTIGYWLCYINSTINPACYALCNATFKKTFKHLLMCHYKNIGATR
- assayDetails: [3H]NMS competition binding, M2 CHO membranes
- Set-up: host or cells: CHO cells, stably transfected
- setupConditions: high-affinity fraction of binding to M2; read-out: high affinity binding
measure: Ki

- Cc1ccc(CN2CC=CCC2)s1.Cl: ~0.03 µM
- Cc1ccc(C[N+]2(C)CC=CCC2)s1.[I-] (centres unmarked): ~0.03 µM

---

- assayedTarget: M2 muscarinic receptor (Homo sapiens)
- assayDetails: [3H]NMS competition binding, M2 CHO membranes
- Parameters: host or cells: CHO cells, stably transfected
- setupConditions: Inhibition constants (Ki) as negative logarithms, M2, competition with 1 nM [3H]NMS
pKi: −log10 of the molar value.
measure: pKi

- C[N+]1(Cc2ccc(Cl)s2)CC=CCC1.[I-] (stereo not shown): 6.16

---

- assayedTarget: UniProt P11229
- assayDetails: [3H]NMS competition binding, M1 CHO membranes
- Design: host or cells: CHO cells, stably transfected
- setupConditions: Inhibition constants (KI) as negative logarithms, M1, high site
measure: Ki (nM)

- O=C1CCCN1CC#CCN1CCCC1 [oxotremorine, reference compound]: 7.94
